Every entry's value here was drawn from ChEMBL document CHEMBL5058577.

System: HEK-293T
Assay: Multiplex assay against HEK293T
Type: toxicity, cell-based
Conditions: human, 48 h, 1 µM, compound concentration 1 uM, replicate 2
Non-standard residues stand in square brackets, D forms with d. Residues, ends and D or L forms follow the SMILES beside them.
Everything with Population Apoptotic (%) lower than 30% is Criterion not met; everything else, including exactly 30%, is Criterion met.

Completed entries (count: 5):
molecule | qualitative_label
OCCCNc1cc(-c2ccnc(Nc3cccc(Cl)c3)n2)ccn1 | Criterion met
O=C(O)CCC/C=C\CC1C(O)CC(O)C1/C=C/C(O)COc1cccc(Cl)c1 (configuration not stated) | Criterion not met
COc1cc(Nc2ncc3c(n2)-c2ccc(Cl)cc2C(c2c(F)cccc2OC)=NC3)ccc1C(=O)O | Criterion met
COc1c(Nc2ccc(S(C)(=O)=O)nc2C)ncnc1OC1CCN(C(=O)OC(C)C)CC1 | Criterion met
COc1cc2nc(N3CCN(C(=O)COc4c(OC)cccc4C(C)C)CC3)nc(N)c2cc1OC.Cl.Cl | Criterion not met

Reported Population Apoptotic (%) at or above 30%? Cc1c(Cc2ccc3ccccc3n2)c2cc(F)ccc2n1CC(=O)O
Criterion not met

Reported Population Apoptotic (%) at or above 30%? O=C(NCCNCC(O)COc1ccc(O)cc1)N1CCOCC1.O=C(NCCNCC(O)COc1ccc(O)cc1)N1CCOCC1.O=C(O)/C=C/C(=O)O (configuration not stated) [XAMOTEROL FUMARATE]
Criterion met

Reported Population Apoptotic (%) at or above 30%? COc1cc(OC2CCN(C(C)=O)CC2)ccc1C(=O)N1CCC(N2C(=O)OCc3ccccc32)CC1
Criterion met

Reported Population Apoptotic (%) at or above 30%? CCCCCCNC(=O)Nc1ccc(S(=O)(=O)Nc2ccc(CCNC[C@H](O)COc3ccc(O)cc3)cc2)cc1
Criterion not met

Reported Population Apoptotic (%) at or above 30%? O=c1nc2[nH]c3ccccc3nc-2c(=O)[nH]1
Criterion not met

Reported Population Apoptotic (%) at or above 30%? Nc1nc(CC(=O)Nc2ccc(CCNC[C@H](O)c3ccccc3)cc2)cs1
Criterion not met

Reported Population Apoptotic (%) at or above 30%? CC(C)C[C@@H]1NC(=O)[C@@H](C(C)C)NC(=O)[C@@H]2CCCN2C(=O)[C@@H](CC(=O)O)NC(=O)[C@@H](Cc2c[nH]c3ccccc23)NC1=O [BQ-123] (cyclo(L[dW][dD]P[dV]))
Criterion not met

Reported Population Apoptotic (%) at or above 30%? CN(C)C(=O)Cn1cc(-c2ccc(-c3nnc4ccccn34)cc2)cn1
Criterion met

Reported Population Apoptotic (%) at or above 30%? CN(C)C/C=C/C(=O)Nc1ccc(C(=O)N2CCCC(Nc3ncc(Cl)c(-c4c[nH]c5ccccc45)n3)C2)cc1 (configuration not stated)
Criterion met

----------
Tested on: Fibroblast
Assay: Multiplex assay against human fibroblast
Format: toxicity, cell-based
Conditions: 48 h, 1 µM, compound concentration 1 uM, replicate 2
Non-standard residues stand in square brackets, D forms with d. Residues, ends and D or L forms follow the SMILES beside them.
readout: Total Cell Count
A bare number is all that is needed in reply.

Solved cases below.
compound | Total Cell Count
COCCCN1CCC(NC(=O)c2cc(Cl)c(N)c3c2OCC3)CC1 [PRUCALOPRIDE] | 132
Cn1cc(C(=O)OCC2CCN(CCNS(C)(=O)=O)CC2)c2ccccc21 | 177
S=C(NCCCc1c[nH]cn1)NCCCN(Cc1ccc(Cl)c(Cl)c1)c1ccc(Br)cn1 | 178
C[C@H](NC(=O)CNC(=O)c1cccc(Cl)c1)c1ccccc1 | 147
CC(C)C[C@@H]1NC(=O)[C@@H](C(C)C)NC(=O)[C@@H]2CCCN2C(=O)[C@@H](CC(=O)O)NC(=O)[C@@H](Cc2c[nH]c3ccccc23)NC1=O [BQ-123] (cyclo(L[dW][dD]P[dV])) | 172

Note down Total Cell Count recorded for COc1ccc2[nH]c(I)c(CCNC(C)=O)c2c1
163

Note down Total Cell Count recorded for Cc1cc(O)c(-c2ccc([C@@H](C)CN(C)C)cc2)c2c1[nH]c(=O)c1sccc12
103

Note down Total Cell Count recorded for Nc1nc(-c2ccco2)c2cnn(Cc3ccccc3F)c2n1
147

Note down Total Cell Count recorded for CN(C)C(=O)Cn1cc(-c2ccc(-c3nnc4ccccn34)cc2)cn1
147

Note down Total Cell Count recorded for CN1C[C@H](C(=O)N[C@]2(C)O[C@@]3(O)[C@@H]4CCCN4C(=O)[C@H](Cc4ccccc4)N3C2=O)C[C@@H]2c3cccc4[nH]cc(c34)C[C@H]21.CS(=O)(=O)O [DIHYDROERGOTAMINE MESYLATE]
139

----------
Test system: U2OS
Experiment: Multiplex assay against U2OS
Assay type: toxicity, cell-based
Details: human, 48 h, 1 µM, compound concentration 1 uM, replicate 1
readout: Population Tubulin-Different-Phenotype (%)
Give your result in % as a bare value.

Solved cases below.
compound | unit_symbol | observed_measurement
Cc1cc(-c2ccc3c(c2)CC[C@H]3N2CC3(CCN(C(=O)Cc4cn5cc(C)sc5n4)CC3)C2)ncn1 | % | 4
COC(c1ccccc1)(c1ccccc1)[C@H](Oc1nc(C)cc(C)n1)C(=O)O | % | 0
CN1CCN2c3ccccc3Cc3ccccc3C2C1.Cl (configuration not stated) [MIANSERIN HYDROCHLORIDE] | % | 4
CC(C)(C)c1ccc(CSc2cnn(C(C)(C)C)c(=O)c2Cl)cc1 | % | 3
CCCCCCNC(=O)Nc1ccc(S(=O)(=O)Nc2ccc(CCNC[C@H](O)COc3ccc(O)cc3)cc2)cc1 | % | 3
COc1cc2nc(N3CCN(C(=O)c4ccco4)CC3)nc(N)c2cc1OC.Cl [PRAZOSIN HYDROCHLORIDE] | % | 2
O=C(NCCNCC(O)COc1ccc(O)cc1)N1CCOCC1.O=C(NCCNCC(O)COc1ccc(O)cc1)N1CCOCC1.O=C(O)/C=C/C(=O)O (configuration not stated) [XAMOTEROL FUMARATE] | % | 2
CCn1c(-c2nc3cc(C(=O)N4CCCC(N)C4)ccc3n2C)cc2ccccc21.Cl (configuration not stated) | % | 5
COc1cc(Nc2ncc3c(n2)-c2ccc(Cl)cc2C(c2c(F)cccc2OC)=NC3)ccc1C(=O)O | % | 3
COc1cc(C(=O)N2CC[C@@H](O)[C@@H](N)C2)cc2nc(-c3cc4ccccc4n3CC3CC3)n(C)c12.Cl | % | 5

Note down Population Tubulin-Different-Phenotype (%) recorded for Cn1cc(C(=O)OCC2CCN(CCNS(C)(=O)=O)CC2)c2ccccc21
5

Note down Population Tubulin-Different-Phenotype (%) recorded for O=C(O)CCC/C=C\CC1C(O)CC(O)C1/C=C/C(O)COc1cccc(Cl)c1 (configuration not stated)
0

Note down Population Tubulin-Different-Phenotype (%) recorded for O=C(Nc1cc(-c2ccccc2)nn1-c1ccccc1F)c1ccc([N+](=O)[O-])cc1
5

Note down Population Tubulin-Different-Phenotype (%) recorded for Cl.Cl.OCCOCCN1CCN(C(c2ccccc2)c2ccc(Cl)cc2)CC1 (configuration not stated) [HYDROXYZINE HYDROCHLORIDE]
4

Note down Population Tubulin-Different-Phenotype (%) recorded for O=c1nc2[nH]c3ccccc3nc-2c(=O)[nH]1
1

Note down Population Tubulin-Different-Phenotype (%) recorded for Cc1c(Cc2ccc3ccccc3n2)c2cc(F)ccc2n1CC(=O)O
3

Note down Population Tubulin-Different-Phenotype (%) recorded for COc1ccc2c(c1OCc1ccccc1)C[C@@H](C(=O)O)N(C(=O)C(c1ccccc1)c1ccccc1)C2
2

----------
Tested on: Fibroblast
Assay: Multiplex assay against human fibroblast
Type: toxicity, cell-based
Details: 12 h, 10 µM, compound concentration 10 uM, replicate 1
# label = 1 if Population Mitochondria Different-Phenotype (%) < 7% else 0

compound | assay_target | qualitative_label
O=C(Nc1cc(-c2ccccc2)nn1-c1ccccc1F)c1ccc([N+](=O)[O-])cc1 | Fibroblast | 1

Find out if reported Population Mitochondria Different-Phenotype (%) for Cc1cc(NC(=O)NCCN2CCC(O)(Cc3ccccc3)CC2)c2ccccc2n1 is less than 7%
0

Find out if reported Population Mitochondria Different-Phenotype (%) for Cn1cc(C(=O)OCC2CCN(CCNS(C)(=O)=O)CC2)c2ccccc21 is less than 7%
0

Find out if reported Population Mitochondria Different-Phenotype (%) for CCCCCCNC(=O)Nc1ccc(S(=O)(=O)Nc2ccc(CCNC[C@H](O)COc3ccc(O)cc3)cc2)cc1 is less than 7%
0

Find out if reported Population Mitochondria Different-Phenotype (%) for O=c1nc2[nH]c3ccccc3nc-2c(=O)[nH]1 is less than 7%
1

Find out if reported Population Mitochondria Different-Phenotype (%) for C=CCN1C[C@H](C(=O)N(CCCN(C)C)C(=O)NCC)C[C@@H]2c3cccc4[nH]cc(c34)C[C@H]21 is less than 7%
0

Find out if reported Population Mitochondria Different-Phenotype (%) for O=C(NCCNCC(O)COc1ccc(O)cc1)N1CCOCC1.O=C(NCCNCC(O)COc1ccc(O)cc1)N1CCOCC1.O=C(O)/C=C/C(=O)O (stereo unspecified) [XAMOTEROL FUMARATE] is less than 7%
1

Find out if reported Population Mitochondria Different-Phenotype (%) for CN(C)C/C=C/C(=O)Nc1ccc(C(=O)N2CCCC(Nc3ncc(Cl)c(-c4c[nH]c5ccccc45)n3)C2)cc1 (stereo unspecified) is less than 7%
0

Find out if reported Population Mitochondria Different-Phenotype (%) for C[C@H](NC(=O)CNC(=O)c1cccc(Cl)c1)c1ccccc1 is less than 7%
0

Find out if reported Population Mitochondria Different-Phenotype (%) for CCC(=O)OCC(=O)[C@@]1(OC(=O)CC)[C@@H](C)C[C@H]2[C@@H]3CCC4=CC(=O)C=C[C@]4(C)[C@@]3(Cl)[C@@H](O)C[C@@]21C [BECLOMETHASONE DIPROPIONATE] is less than 7%
0

Find out if reported Population Mitochondria Different-Phenotype (%) for CC(C)(C)c1ccc(CSc2cnn(C(C)(C)C)c(=O)c2Cl)cc1 is less than 7%
1

Find out if reported Population Mitochondria Different-Phenotype (%) for COC(c1ccccc1)(c1ccccc1)[C@H](Oc1nc(C)cc(C)n1)C(=O)O is less than 7%
0

Find out if reported Population Mitochondria Different-Phenotype (%) for Cc1ccc(OCC(O)C(C)NC(C)C)c2c1CCC2.Cl (stereo unspecified) is less than 7%
0
